The reported numbers originate from the supplement of paper PMC10567573.

- experiment_summary: protein stability index of a GFP-peptide fusion (GPS, HEK-293T) (PSI 1-6); higher = more stable;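 further: 24-mer peptide tiles fused after GFP, lentivirally expressed, FACS-sorted into six equal bins by GFP/DsRed ratio, decoded by Illumina sequencing, PSI is the read-weighted mean bin number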
- assay_context: treatment: MLN4924 1 uM, 8 h; c terminus: a fixed tail appended
Recorded protein stability index split into classes interval 1: < 3; interval 2: ≥ 3 and < 4; interval 3: ≥ 4

- sequence_record: "ARFITDFLDNGYGHCLLDKPEAPL [ADAMTS4]"
  class_label: "interval 1"
- sequence_record: "FLQKVAQMPQEEVELLPPAPKGKG [BRD3]"
  class_label: "interval 3"
- sequence_record: "LAGMANHGSPQLGEGMFQHQTSVA [TBX5]"
  class_label: "interval 2"
- sequence_record: "LHAAAAGGNVECIKLLQSSGADFH [ANKRD44]"
  class_label: "interval 2"
- sequence_record: "LQMAVLVEKQADTLNVIELNVQKT [STX11]"
  class_label: "interval 1"
- sequence_record: "PVPVIVSNFNYFYHRETEGEEQSQ [KCNA3]"
  class_label: "interval 3"
- sequence_record: "HLSGSHNTLAPTCFKAKLHRKRGS [RSPH3]"
  class_label: "interval 2"
- sequence_record: "FPPEGNMEDKEMTGPQLPESLEDV [ZNF263]"
  class_label: "interval 3"
- sequence_record: "DQLIGQGIIVKDARLNGSVASYIL [TENT5D]"
  class_label: "interval 1"
- sequence_record: "REQSRLTSCLKKREEMKLKECVSI [TNFSF13B]"
  class_label: "interval 2"
- sequence_record: "LDPSFPVEFVRHGDIIRLEHKETS [POMT2]"
  class_label: "interval 3"
- sequence_record: "EEVSEVESFILDQDDLENPMLETA [ANKRD17]"
  class_label: "interval 3"
- sequence_record: "STASTTSTTNSTAAKPAASITSKP [ZNF207]"
  class_label: "interval 3"
- sequence_record: "KAEPRLPDRVYIHPDSPATGAHWM [TBX6]"
  class_label: "interval 2"
- sequence_record: "KLQGLENWGQDPGVSANASKAWHQ [PBXIP1]"
  class_label: "interval 2"
- sequence_record: "KILVGNRLHLAFKRQVPREQAQAY [RAB40A]"
  class_label: "interval 1"
- sequence_record: "AHQHRDKMQQSKNQVVSSTNGELN [CSNK1G3]"
  class_label: "interval 3"
- sequence_record: "EIVVTISWAKSIPGFSSLSLSDQM [ESRRA]"
  class_label: "interval 1"
- sequence_record: "TLSKSEYMVIEEGGMNHSAFPQTP [KCNA3]"
  class_label: "interval 2"
- sequence_record: "QLLEDAILIIQGVLSDINLKKGES [NET1]"
  class_label: "interval 2"
- sequence_record: "AMLREKFPEFCSSPSPPVEVKIEE [INTS3]"
  class_label: "interval 3"
- sequence_record: "LDVEAAHSEILKYFQSVTSNRWLM [STX5]"
  class_label: "interval 1"
- sequence_record: "NHCMLSPSSSGHLADSDTLSSAEE [C18orf25]"
  class_label: "interval 3"
- sequence_record: "KDHECSECGKTFIYNSHLVVHQRV [ZNF232]"
  class_label: "interval 1"

* * *

# protein stability index per record follows
- experiment_summary: protein stability index of a GFP-peptide fusion (GPS, HEK-293T) (PSI 1-6); higher = more stable
- assay_context: treatment: MLN4924 1 uM, 8 h; c terminus: a fixed tail appended
quantity: protein stability index

- sequence_record: "RKRMKMDKTCSKTKNKSKHALRKK [FAM9B]"
  endpoint_result: 4.66
- sequence_record: "TSPSSNNSSEELSSALHLSKGMSI [NECAB1]"
  endpoint_result: 4.24
- sequence_record: "HLVIAEMMELGSRSRGASQKKQKL [FATE1]"
  endpoint_result: 3.34
- sequence_record: "NLIKSENYGKILVEKNEHCIENNI [R3HDM1]"
  endpoint_result: 3.49
- sequence_record: "EGRFWKSKNEDRGEEEAESSISST [ZMYND11]"
  endpoint_result: 5.71
- sequence_record: "LKDVKSTLEKCEKVKTMEVTSVSI [TRIM39]"
  endpoint_result: 3.89
- sequence_record: "TFEQAIQAASRIIRNEQFAIRRFQ [CDC25B]"
  endpoint_result: 2.01
- sequence_record: "ATKKLGFKHPVIGVHVRRTDKVGT [FUT8]"
  endpoint_result: 3.15
- sequence_record: "GIESMDQCRHTLEQHNWNIEAAVQ [FAF2]"
  endpoint_result: 4.08
- sequence_record: "PTCPVCKDRASPADLRTNHTLNNL [TRIM35]"
  endpoint_result: 3.9
- sequence_record: "SLAYCLACGGGHLLPYFYIIYMAI [DHCR7]"
  endpoint_result: 2.45
- sequence_record: "MEVLPCSRVAHIERTRKPYNNDID [GALNT9]"
  endpoint_result: 2.44
- sequence_record: "LVEKGVLTTEKQNFLLFDMTTHPL [GOLPH3]"
  endpoint_result: 2.5
- sequence_record: "AFYKEQLARLEERSSEFYRVTTEQ [CHCHD3]"
  endpoint_result: 3.38
- sequence_record: "NGRHKIPESQFPEFSTSLFSGSLE [SRPK2]"
  endpoint_result: 3.8
- sequence_record: "GLDVLLAQEVRPRRWKLQVLDLRK [PRAME]"
  endpoint_result: 2.33
- sequence_record: "FFKGLVEAVESTLQTPLDIRLKES [TRIM14]"
  endpoint_result: 2.29
- sequence_record: "GQTSGAREPPQAVSIKEAAGSSNL [VENTX]"
  endpoint_result: 5.15
- sequence_record: "LKALTRNVNRLNESFRDLQLRLLQ [SCARA5]"
  endpoint_result: 2.13
- sequence_record: "CRQRLIFEQTPALTKHEWTEALGC [ZNF8]"
  endpoint_result: 2.42
- sequence_record: "QEYAAKIINTKKLSARDHQKLERE [CAMK2A]"
  endpoint_result: 4.78
- sequence_record: "AAPAVRASSSPVTLRQKTVDWRRV [SLA]"
  endpoint_result: 3.17
- sequence_record: "QGLLGRSPPTRPVPGHRSERAIRT [SPRY1]"
  endpoint_result: 4.47
- sequence_record: "HLRTHTGERPYKCSECGESFSRSS [ZNF263]"
  endpoint_result: 3.38
- sequence_record: "TQTTNDGVCQSMCHDKYTKIFNDF [ZMYND11]"
  endpoint_result: 3.27
- sequence_record: "EFVNGWYILLVTSDVLTISGTIMK [MCOLN1]"
  endpoint_result: 3.08
- sequence_record: "LGKILSVELGKQKKKYMPYNHQHK [FADS1]"
  endpoint_result: 2.69
